- PROTOCOL: Compound was evaluated for inhibitory effect against protein phosphatase I (PP-I)
pIC50: −log10 of the molar value.
Listed compounds paired with reported pIC50

- COMPOUND: "CCCCCCCCCCCCCCCC(=O)OC[C@@H](O)[C@H]1OC(=O)[C@]2(CCC(OC(C)C)O2)C1=O (some centres not stated)"
  pIC50: 5.52
- COMPOUND: "CCCCCCCCCCCCCCCC(=O)OC[C@@H](O)[C@H]1OC(=O)[C@]2(O)CCC(O)O[C@]12OC (some centres not stated)"
  pIC50: 4.96

Data provenance is BindingDB's records for doi:10.1016/s0960-894x(00)00294-8.
